# TEST TARGET: T1, LigIV DBD (Met1-Ile240) (UniProt P49917 1-240)
# T1 construct: source: E. coli Rosetta2 (DE3), purified (Ni-NTA, TEV, SEC); not shown: His tag, N-terminal, cleaved
# T1 sequence (looked up): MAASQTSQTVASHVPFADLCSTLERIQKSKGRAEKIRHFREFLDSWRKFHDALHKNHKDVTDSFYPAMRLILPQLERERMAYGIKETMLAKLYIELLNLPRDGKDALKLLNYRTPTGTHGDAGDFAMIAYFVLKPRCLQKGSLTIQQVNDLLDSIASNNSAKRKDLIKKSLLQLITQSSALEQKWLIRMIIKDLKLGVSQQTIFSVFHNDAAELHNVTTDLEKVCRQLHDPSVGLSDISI
# ASSAY TEXT: fluorescence polarisation; 25 nM FAM-labeled peptide constant, LigIV DBD 5 nM–200 μM; 15 mM Tris pH 7.5, 65 mM NaCl, 0.7 mM βME; 20 min
# ASSAY CONDITIONS: both partners purified
pKd: −log10 of the molar value. Where no end group is shown, it is not given here.
REPORTED ENDPOINT: pKd

[ask] Identify the reported pKd for the following entry. {FAM}-MSGWESYYKTE (Ku70, residues 1-11; The results call the modelled stretch 'Ku70 CTR', but the peptide is residues 1-11; also called Ku70 peptide; source: synthetic peptide (GenScript)) [FAM-labeled Ku70 1-11 peptide]
[reply] 4.52 to 4.54

[ask] Identify the reported pKd for the following entry. {FAM}-VPQWEVFFKRN (Artemis, residues 486-496; also called Artemis peptide; source: synthetic peptide (GenScript)) [FAM-labeled Artemis 486-496 peptide]
[reply] 5.40 to 5.82

The origin of these recorded values is paper PMC13649775.
